Several reports have described IC50 for Coagulation factor XI (Homo sapiens, UniProt P03951); a selection of those results is presented here.
The figure you give is taken to be in nM; do not add the unit.

// known answers, use as guide
CCC(c1ccc(F)cc1)c1c[nH]c(C(=O)N2CC[C@@]3(C2)OC(=O)Nc2ccc(Cl)c(F)c23)n1 (single isomer, unassigned) : 1360
Cc1cc(NC(=O)C(CC2CC2)c2ccc(-c3cc(Cl)ccc3CN)c[n+]2[O-])ccc1C(=O)O (racemic) : 228
Cc1cc([C@H](C)n2cc(NC(=O)c3cncc(-c4c(C(F)F)ccc(Cl)c4F)n3)cn2)nnc1N1C[C@H]2C[C@H]2C1=O : 1270
COc1cn(C(CCOC(C)C)C(=O)Nc2ccc(C(N)=O)c(F)c2)c(=O)cc1-c1cc(Cl)ccc1OCC(F)(F)F (racemic) : 25

stdin: Fill in reported IC50 for this entry: CC(C)[C@@H]1Cc2ccc(Cl)cc2-c2cc(=O)n([C@@H](C[C@@H]3COCCO3)C(=O)Nc3ccc(C(N)=O)cc3)cc2CO1 (single isomer, unassigned)
stdout: 1.7
